// data source = paper PMC5428354

- Study System: DPP4 (Homo sapiens, UniProt P27487)
- Sequence (P27487 whole entry): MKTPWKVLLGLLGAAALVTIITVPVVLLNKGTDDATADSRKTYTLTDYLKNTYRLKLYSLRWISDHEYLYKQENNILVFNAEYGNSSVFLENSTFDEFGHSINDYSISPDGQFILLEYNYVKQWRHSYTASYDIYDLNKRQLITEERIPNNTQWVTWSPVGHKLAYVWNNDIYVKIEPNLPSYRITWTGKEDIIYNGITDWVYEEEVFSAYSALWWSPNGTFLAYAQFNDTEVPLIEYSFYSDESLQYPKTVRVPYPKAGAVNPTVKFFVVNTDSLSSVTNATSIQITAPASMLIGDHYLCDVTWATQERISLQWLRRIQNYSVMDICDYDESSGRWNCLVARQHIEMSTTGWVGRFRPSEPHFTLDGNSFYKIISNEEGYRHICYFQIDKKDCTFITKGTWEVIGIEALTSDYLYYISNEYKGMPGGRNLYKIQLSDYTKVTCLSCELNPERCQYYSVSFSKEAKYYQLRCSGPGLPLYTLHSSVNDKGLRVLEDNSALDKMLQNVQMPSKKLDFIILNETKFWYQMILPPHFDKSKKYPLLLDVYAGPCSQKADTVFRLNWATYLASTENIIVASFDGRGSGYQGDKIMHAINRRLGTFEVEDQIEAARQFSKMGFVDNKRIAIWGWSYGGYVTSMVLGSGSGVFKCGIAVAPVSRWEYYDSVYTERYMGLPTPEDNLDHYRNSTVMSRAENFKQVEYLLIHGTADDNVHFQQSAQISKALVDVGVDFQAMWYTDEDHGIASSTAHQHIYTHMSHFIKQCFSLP
- Test Name: DPP4 activity assay (DPP4 inhibitor screening assay kit, Cayman);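 note: fluorescence read at excitation 360 nm and emission 460 nm after the enzyme reaction ran 30 min at 37 °C in a 96-well plate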
- Format: biochemical
- Parameters: purchased Cayman Chemical, Ann Arbor, MI, USA
- Test Context: 0.5 h, 10 µM; control mean 100.0; Figure 1A raw data; read-out: DPP4 activity in library screen, Exp 1
I'd appreciate it if you could supply remaining activity at 10 µM values for the items below.
Supply the numeric figure in %, leaving out any unit text.

# return recorded remaining activity at 10 µM for entry Cc1cc2c(C(C)C)c(O)c(O)c(C=O)c2c(O)c1-c1c(C)cc2c(C(C)C)c(O)c(O)c(C=O)c2c1O [Gossypol] 54.6

# return recorded remaining activity at 10 µM for entry COc1cc(C2Oc3cc([C@H]4Oc5cc(O)cc(O)c5C(=O)[C@@H]4O)ccc3OC2CO)ccc1O (stereo partly drawn) [Silibinin] 65.1

# return recorded remaining activity at 10 µM for entry O=C(O)Cc1c[nH]c2ccccc12 [Indole-3-acetic acid] 115

# return recorded remaining activity at 10 µM for entry Cc1coc2c1C(=O)C(=O)c1c-2ccc2c1CCCC2(C)C [Tanshinone IIA] 50.8

# return recorded remaining activity at 10 µM for entry O=C(CCc1ccc(O)cc1)c1c(O)cc(O)cc1O[C@@H]1O[C@H](CO)[C@@H](O)[C@H](O)[C@H]1O [Phlorizin] 63.2

# return recorded remaining activity at 10 µM for entry COc1cc(C(C)=O)ccc1O [Apocynin] 82.6

# return recorded remaining activity at 10 µM for entry O=c1cc(-c2ccc(O)cc2)oc2cc(O)cc(O)c12 [Apigenin] 97.4

# return recorded remaining activity at 10 µM for entry CCn1cc(C(=O)O)c(=O)c2ccc(C)nc21 [Nalidixic acid] 95.6

# return recorded remaining activity at 10 µM for entry O=C(O)C1=C[C@@H](O)[C@@H](O)[C@H](O)C1 [Shikimic Acid] 87.3

# return recorded remaining activity at 10 µM for entry OC[C@@H](O)[C@@H](O)[C@H](O)[C@H](O)CO [D-Mannitol] 96

# return recorded remaining activity at 10 µM for entry CC[C@H](CC[C@@H](C)[C@H]1CC[C@H]2[C@@H]3CC=C4C[C@@H](O)CC[C@]4(C)[C@H]3CC[C@]12C)C(C)C [beta-sitosterol] 98.6

# return recorded remaining activity at 10 µM for entry OC[C@H]1O[C@@H](OCCc2ccc(O)cc2)[C@H](O)[C@@H](O)[C@@H]1O [Salidroside] 97.1

# return recorded remaining activity at 10 µM for entry O=C(/C=C/C=C/c1ccc2c(c1)OCO2)N1CCCCC1 [Piperine] 67.7

# return recorded remaining activity at 10 µM for entry CNCC(O)c1ccc(O)cc1 (stereo not drawn) [Synephrine] 98.7

# return recorded remaining activity at 10 µM for entry C[C@H]1C(=O)O[C@@H]2CCN3CC=C(COC(=O)[C@](C)(O)[C@]1(C)O)[C@H]23 [Monocrotaline] 70.9

# return recorded remaining activity at 10 µM for entry CCCC[N+]1(C)[C@@H]2C[C@@H](OC(=O)[C@H](CO)c3ccccc3)C[C@H]1[C@@H]1O[C@@H]12 (stereo partly drawn) [Butylscopolamine bromide] 97.5

# return recorded remaining activity at 10 µM for entry C=C[C@](C)(O)CC[C@@H]1[C@@]2(C)CCCC(C)(C)[C@@H]2CC[C@@]1(C)O [Sclareol] 80.9

# return recorded remaining activity at 10 µM for entry Oc1cc2c(cc1O)[C@@H]1c3ccc(O)c(O)c3OC[C@]1(O)C2 [Hematoxylin] 70.1
